Each recorded value in this set is attributed to patent US20210403601A1.

Reported values of koff for individual entries
Target: T1, Taq DNA polymerase (Thermus aquaticus, UniProt P19821 1-832)
T1 construct: also called Taq enzyme; Taq DNA enzyme
T1 sequence (P19821 whole entry): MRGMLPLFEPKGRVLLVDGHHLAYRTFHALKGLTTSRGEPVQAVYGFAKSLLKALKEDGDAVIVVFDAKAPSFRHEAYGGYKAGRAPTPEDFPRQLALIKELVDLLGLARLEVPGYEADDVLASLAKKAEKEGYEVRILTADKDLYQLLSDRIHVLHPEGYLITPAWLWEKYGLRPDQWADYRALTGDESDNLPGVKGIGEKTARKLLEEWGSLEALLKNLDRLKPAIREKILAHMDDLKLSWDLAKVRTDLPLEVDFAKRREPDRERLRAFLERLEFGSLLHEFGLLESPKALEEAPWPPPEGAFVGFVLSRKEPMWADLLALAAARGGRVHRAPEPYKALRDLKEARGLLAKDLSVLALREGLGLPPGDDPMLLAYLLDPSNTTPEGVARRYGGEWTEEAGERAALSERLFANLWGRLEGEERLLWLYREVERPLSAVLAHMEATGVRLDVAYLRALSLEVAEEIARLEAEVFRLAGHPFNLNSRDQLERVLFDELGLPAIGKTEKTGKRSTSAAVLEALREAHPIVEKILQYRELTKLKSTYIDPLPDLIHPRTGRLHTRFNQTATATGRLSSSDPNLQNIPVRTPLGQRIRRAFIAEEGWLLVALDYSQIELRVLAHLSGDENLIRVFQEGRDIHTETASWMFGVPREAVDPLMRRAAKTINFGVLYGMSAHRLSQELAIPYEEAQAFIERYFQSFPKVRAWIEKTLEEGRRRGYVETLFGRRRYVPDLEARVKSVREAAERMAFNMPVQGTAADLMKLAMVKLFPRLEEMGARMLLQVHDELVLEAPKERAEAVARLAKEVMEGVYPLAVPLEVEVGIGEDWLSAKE
Experiment: AMC sensor, antibody immobilised
All answers are understood in s⁻¹, so give the number only.

Below: 3 binders and their reported koff.
binder	unit of measure	val
Mutation 1-3 (antibody, V domains shown, Mutation 1 background; CDRs built) VH: QVQLQQPGAELVKPGASVRLSCQTSVETFTTYYIYWVKQRPGEGLEWIGGVNPTSGGPVFNEKFKSKATLTVDTSSSTAYMQLSSLTSVDSAVYYCTRSVLRRGYYFDYWGQGTALTVSS VL: DIQMTQTTSSLSASLGDRVTISCRASQDINNYLNWYQQKPDGTIKLLIYYTSRLHSGIPSRFSGSGSGTDYSLTIANLEQEDIATYFCQQDDTVPVTFGAGTKVELKR	s⁻¹	1.54e-05
Mutation 1-24 (antibody, V domains shown, Mutation 1 background; CDRs built) VH: QVQLQQPGAELVKPGASVRLSCQTSVETFSTYYIYWVKQRPGEGLEWIGGVNPTSGGPVFNEKFKSKATLTVDTSSSTAYMQLSSLTSVDSAVYYCTRSLLRRGYYFDYWGQGTALTVSS VL: DIQMTQTTSSLSASLGDRVTISCRASQDIQNYVNWYQQKPDGTIKLLIYYTSRLQSGLPSRFSGSGSGTDYSLTIANLEQEDIATYFCQQDDTLPVTFGAGTKVELKR	s⁻¹	1.12e-05
Mutation 1-9 (antibody, V domains shown, Mutation 1 background; CDRs built) VH: QVQLQQPGAELVKPGASVRLSCQTSVETFTTYYIYWVKQRPGEGLEWIGGVNPTSGGPVFNEKFKSKATLTVDTSSSTAYMQLSSLTSVDSAVYYCTRSILRRGYYFDYWGQGTALTVSS VL: DIQMTQTTSSLSASLGDRVTISCRASQDINNYLNWYQQKPDGTIKLLIYYTSRLQSGIPSRFSGSGSGTDYSLTIANLEQEDIATYFCQQDDTIPVTFGAGTKVELKR	s⁻¹	7.28e-05

Now for the binder whose koff we want.
Consider Mutation 1-48 (antibody, V domains shown, Mutation 1 background; CDRs built) VH: QVQLQQPGAELVKPGASVRLSCQTSVETFSTYYIYWVKQRPGEGLEWIGGINPTSNPVFNEKFKSKATLTVDTSSSTAYMQLSSLTSVDSAVYYCTRSVLRRGYYFDYWGQGTALTVSS VL: DIQMTQTTSSLSASLGDRVTISCRASQDIQNYVNWYQQKPDGTIKLLIYYTSRLQSGVPSRFSGSGSGTDYSLTIANLEQEDIATYFCQQDDTVPLTFGAGTKVELKR . Its measured koff is 3.72e-05
